Data credit: ChEMBL document CHEMBL1138800

Listed molecules paired with reported Ki
TARGET OR SYSTEM: UniProt:P30542
Sequence (P30542 whole entry): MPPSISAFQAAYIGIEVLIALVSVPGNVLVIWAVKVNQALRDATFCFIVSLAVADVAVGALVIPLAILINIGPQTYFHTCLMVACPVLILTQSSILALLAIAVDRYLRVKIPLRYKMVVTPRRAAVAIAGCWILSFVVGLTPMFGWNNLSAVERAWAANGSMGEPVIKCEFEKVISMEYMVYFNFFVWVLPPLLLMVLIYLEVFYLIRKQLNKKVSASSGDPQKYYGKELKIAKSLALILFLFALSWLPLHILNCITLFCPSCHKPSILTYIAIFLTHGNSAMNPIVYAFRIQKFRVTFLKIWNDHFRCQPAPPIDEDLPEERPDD
EXPERIMENT NOTES: Displacement of [3H]CHA binding to Adenosine A1 receptor expressed in CHO cells
Type: cell-based
Answer shape: numeric part, then the unit.

{"columns": ["MOLECULE", "TARGET OR SYSTEM", "RESULT"],
 "data": [
  ["CCCNS(=O)(=O)c1ccc(NC(=O)Nc2ncnc3c2ncn3C2O[C@H](C(=O)NCC)C(O)C2O)cc1 (single isomer, unassigned)", "UniProt:P30542", "0.29 µM"],
  ["CCNC(=O)[C@H]1OC(n2cnc3c(NC(=O)Nc4ccc(S(=O)(=O)N(CCCl)CCCl)cc4)ncnc32)C(O)C1O (single isomer, unassigned)", "UniProt:P30542", "0.73 µM"]
]}

// query May I ask what Ki has been recorded for CCNC(=O)[C@H]1OC(n2cnc3c(NC(=O)Nc4ccc(S(=O)(=O)NC5CCCCC5)cc4)ncnc32)C(O)C1O (single isomer, unassigned) ?
// result 0.35 µM
